Assay: qHTS for Inhibitors of TGF-b: Cytotox Counterscreen
Details: HepG2 CAGA-GFP viability, ATP luminescence, 18 h; series mostly up to 46.1 µM
Out of some 410,000 compounds screened, about 3,100 (0.76%) were called active. The call rests on the fitted dose curve; in most records, active means well fitted cell-killing curve with a large enough effect; inactive means no such curve, though single readings can be large or run the other way. The sample as a whole holds a higher share of actives than the screen did.
Valid outcomes are listed here; reply with one: TRUE for active, FALSE for inactive

[[record]]
structure_smiles_string = "Cc1ccc(S(=O)(=O)Oc2ccc(/C=N/NC(=O)c3c(Cl)cnn3C)cc2)cc1"
cat = "FALSE"

[[record]]
structure_smiles_string = "CCCSc1ncc(Cl)c(C(=O)Nc2c(C(=O)Nc3ccccc3)oc3ccccc23)n1"
cat = "FALSE"

[[record]]
structure_smiles_string = "COc1cc(/C=N/O)cc(Br)c1OS(=O)(=O)c1ccc(C)cc1"
cat = "TRUE"


Attention now shifts to the item below.
// param item: CC(C)(C)c1ccc(C(=O)Nc2ccc3c(c2)CCCN3C(=O)c2cccs2)cc1 ; yields the recorded call
FALSE
